# credit: ChEMBL document CHEMBL3885861

Organism: Rattus norvegicus
Assay: Open TG-GATES - Regimen: Single
Assay type: toxicity, organism-based, Sprague-Dawley
Design: regimen Single, gender Male, age 6 weeks
Conditions: in vivo, po, 0 mg/kg, 3 h, tissue Plasma, route gavage, dose level Control
measurement label: Cl (meq/L)

>>> measured("CN1C(=O)OC(C)(C)C1=O [TRIMETHADIONE]")
107.4
>>> measured("CC(C)C(=O)Nc1ccc([N+](=O)[O-])c(C(F)(F)F)c1 [FLUTAMIDE]")
103.2
>>> measured("C[C@]12CCC(=O)C=C1CC[C@@H]1[C@@H]2CC[C@@]2(C)[C@H]1CC[C@]2(C)O [METHYLTESTOSTERONE]")
105.6
>>> measured("Nc1nc(N)c2nc(-c3ccccc3)c(N)nc2n1")
105.2
>>> measured("O=C(O)c1cccnc1 [NIACIN]")
102.6
>>> measured("C#C[C@]1(O)CC[C@H]2[C@@H]3CCc4cc(O)ccc4[C@H]3CC[C@@]21C [ETHINYL ESTRADIOL]")
107
>>> measured("CC(=O)Oc1cc(C(C)C)c(OCCN(C)C)cc1C [MOXISYLYTE]")
106
>>> measured("CC(=N)S [THIOACETAMIDE]")
103.6
>>> measured("CCc1oc2ccccc2c1C(=O)c1cc(I)c(O)c(I)c1 [BENZIODARONE]")
104.2
>>> measured("CCN1CCCC1CNC(=O)c1cc(S(N)(=O)=O)ccc1OC (stereo not given) [SULPIRIDE]")
105.8

---

Species: Rattus norvegicus
Assay: Open TG-GATES - Regimen: Daily Repeat
Assay type: toxicity, organism-based, Sprague-Dawley
Design: regimen Daily Repeat, gender Male, age 6 weeks
Settings: in vivo, po, 300 mg/kg, 72 h, tissue Blood, route gavage, dose level Middle, time 3 day
Ret values by entry
measurement label: Ret (%)

>>> measured("CCN1CCCC1CNC(=O)c1cc(S(N)(=O)=O)ccc1OC (centres undefined) [SULPIRIDE]")
6.5
>>> measured("O=C(O)c1cccnc1 [NIACIN]")
7.2
>>> measured("O=C(N[C@H](CO)[C@H](O)c1ccc([N+](=O)[O-])cc1)C(Cl)Cl [CHLORAMPHENICOL]")
4.4
>>> measured("CC(C)(S)[C@@H](N)C(=O)O [PENICILLAMINE]")
7.6

---

Species on record: Rattus norvegicus
Experiment: Open TG-GATES - Regimen: Daily Repeat
Type: toxicity, organism-based, Sprague-Dawley
Parameters: regimen Daily Repeat, gender Male, age 6 weeks
Details: in vivo, po, 1000 mg/kg, […], tissue Plasma, route gavage, dose level High, time 14 day
measurement label: K (meq/L)

>>> measured("O=C(O)c1cccnc1")
4.1
>>> measured("CCN1CCCC1CNC(=O)c1cc(S(N)(=O)=O)ccc1OC (centres undefined) [SULPIRIDE]")
3.9
>>> measured("O=C(N[C@H](CO)[C@H](O)c1ccc([N+](=O)[O-])cc1)C(Cl)Cl")
4.1
>>> measured("CC(C)(S)[C@@H](N)C(=O)O")
3.8

---

RALB values by entry
Species on record: Rattus norvegicus
Assay: Open TG-GATES - Regimen: Daily Repeat
Type: toxicity, organism-based, Sprague-Dawley
Design: regimen Daily Repeat, gender Male, age 6 weeks
Conditions: in vivo, po, 0 mg/kg, […], tissue Plasma, route gavage, dose level Control, time 7 day
measurement label: RALB (g/dL)

>>> measured("O=C(O)c1cccnc1")
3
>>> measured("Oc1ncnc2[nH]ncc12")
4
>>> measured("CN1C(=O)OC(C)(C)C1=O")
2.6
>>> measured("CCc1oc2ccccc2c1C(=O)c1cc(I)c(O)c(I)c1")
3.6
>>> measured("CC(C)C(=O)Nc1ccc([N+](=O)[O-])c(C(F)(F)F)c1 [FLUTAMIDE]")
3.6
>>> measured("CC(=O)Oc1cc(C(C)C)c(OCCN(C)C)cc1C")
3
>>> measured("CCC(C)(C)C(=O)O[C@H]1C[C@@H](C)C=C2C=C[C@H](C)[C@H](CC[C@@H]3C[C@@H](O)CC(=O)O3)[C@H]21")
3.8
>>> measured("CC(C)(S)[C@@H](N)C(=O)O")
2.8
>>> measured("O=C(N[C@H](CO)[C@H](O)c1ccc([N+](=O)[O-])cc1)C(Cl)Cl")
2.7
>>> measured("CCSCC[C@H](N)C(=O)O")
3.5

---

MCV values by entry
Species on record: Rattus norvegicus
Test: Open TG-GATES - Regimen: Single
Assay type: toxicity, organism-based, Sprague-Dawley
Set-up: regimen Single, gender Male, age 6 weeks
Settings: in vivo, po, 0 mg/kg, 24 h, tissue Blood, route gavage, dose level Control
measurement label: MCV (fL)

>>> measured("C[C@]12CCC(=O)C=C1CC[C@@H]1[C@@H]2CC[C@@]2(C)[C@H]1CC[C@]2(C)O")
63.6
>>> measured("O=C(N[C@H](CO)[C@H](O)c1ccc([N+](=O)[O-])cc1)C(Cl)Cl")
66.6
>>> measured("CC(C)C(=O)Nc1ccc([N+](=O)[O-])c(C(F)(F)F)c1 [FLUTAMIDE]")
65.7
>>> measured("Oc1ncnc2[nH]ncc12")
65
>>> measured("CC(=N)S [THIOACETAMIDE]")
64.2
>>> measured("O=C(O)c1cccnc1")
63.3
>>> measured("CC(C)(S)[C@@H](N)C(=O)O")
65.2
>>> measured("CC(=O)Oc1cc(C(C)C)c(OCCN(C)C)cc1C")
62.3
>>> measured("C#C[C@]1(O)CC[C@H]2[C@@H]3CCc4cc(O)ccc4[C@H]3CC[C@@]21C")
64.4
>>> measured("C[C@](N)(Cc1ccc(O)c(O)c1)C(=O)O")
64.4

---

RALB values by entry
Species on record: Rattus norvegicus
Assay: Open TG-GATES - Regimen: Daily Repeat
Format: toxicity, organism-based, Sprague-Dawley
Parameters: regimen Daily Repeat, gender Male, age 6 weeks
Conditions: in vivo, po, 0 mg/kg, 72 h, tissue Plasma, route gavage, dose level Control, time 3 day
measurement label: RALB (g/dL)

>>> measured("Oc1ncnc2[nH]ncc12")
3.9
>>> measured("Nc1nc(N)c2nc(-c3ccccc3)c(N)nc2n1")
2.6
>>> measured("C#C[C@]1(O)CC[C@H]2[C@@H]3CCc4cc(O)ccc4[C@H]3CC[C@@]21C")
2.6
>>> measured("CCc1oc2ccccc2c1C(=O)c1cc(I)c(O)c(I)c1")
3.7
>>> measured("CCSCC[C@H](N)C(=O)O")
3.4
>>> measured("CC(C)(S)[C@@H](N)C(=O)O")
2.8
>>> measured("CCN1CCCC1CNC(=O)c1cc(S(N)(=O)=O)ccc1OC (stereo unspecified) [SULPIRIDE]")
2.7
>>> measured("C[C@](N)(Cc1ccc(O)c(O)c1)C(=O)O")
2.6
>>> measured("CC(=N)S [THIOACETAMIDE]")
4
>>> measured("CCC(C)(C)C(=O)O[C@H]1C[C@@H](C)C=C2C=C[C@H](C)[C@H](CC[C@@H]3C[C@@H](O)CC(=O)O3)[C@H]21")
3.8
>>> measured("CC(=O)Oc1cc(C(C)C)c(OCCN(C)C)cc1C")
3.1
>>> measured("C[C@]12CCC(=O)C=C1CC[C@@H]1[C@@H]2CC[C@@]2(C)[C@H]1CC[C@]2(C)O")
2.6
>>> measured("O=C(O)c1cccnc1")
3.1
>>> measured("CC(C)C(=O)Nc1ccc([N+](=O)[O-])c(C(F)(F)F)c1 [FLUTAMIDE]")
3.3
>>> measured("CN1C(=O)OC(C)(C)C1=O")
2.6
>>> measured("O=C(N[C@H](CO)[C@H](O)c1ccc([N+](=O)[O-])cc1)C(Cl)Cl")
2.7

---

Species: Rattus norvegicus
Assay: Open TG-GATES - Regimen: Daily Repeat
Type: toxicity, organism-based, Sprague-Dawley
Set-up: regimen Daily Repeat, gender Male, age 6 weeks
Settings: in vivo, po, 100 mg/kg, […], tissue Plasma, route gavage, dose level Low, time 28 day
measurement label: BUN (mg/dL)

>>> measured("CC(C)(S)[C@@H](N)C(=O)O [PENICILLAMINE]")
16.6
>>> measured("CCN1CCCC1CNC(=O)c1cc(S(N)(=O)=O)ccc1OC (centres undefined) [SULPIRIDE]")
17.2
>>> measured("O=C(O)c1cccnc1 [NIACIN]")
18.2
>>> measured("O=C(N[C@H](CO)[C@H](O)c1ccc([N+](=O)[O-])cc1)C(Cl)Cl [CHLORAMPHENICOL]")
16.4

---

Species on record: Rattus norvegicus
Assay: Open TG-GATES - Regimen: Daily Repeat
Assay type: toxicity, organism-based, Sprague-Dawley
Set-up: regimen Daily Repeat, gender Male, age 6 weeks
Conditions: in vivo, po, 0 mg/kg, […], tissue Blood, route gavage, dose level Control, time 14 day
WBC values by entry
measurement label: WBC (x10_2/uL)

>>> measured("CN1C(=O)OC(C)(C)C1=O")
99.3
>>> measured("CC(=N)S [THIOACETAMIDE]")
145.6
>>> measured("CC(C)(S)[C@@H](N)C(=O)O")
90.4
>>> measured("CC(C)C(=O)Nc1ccc([N+](=O)[O-])c(C(F)(F)F)c1 [FLUTAMIDE]")
110.8
>>> measured("O=C(N[C@H](CO)[C@H](O)c1ccc([N+](=O)[O-])cc1)C(Cl)Cl")
90.5
>>> measured("CC(=O)Oc1cc(C(C)C)c(OCCN(C)C)cc1C")
125
>>> measured("C#C[C@]1(O)CC[C@H]2[C@@H]3CCc4cc(O)ccc4[C@H]3CC[C@@]21C")
90.3
>>> measured("CCN1CCCC1CNC(=O)c1cc(S(N)(=O)=O)ccc1OC (stereo not given) [SULPIRIDE]")
115
>>> measured("C[C@]12CCC(=O)C=C1CC[C@@H]1[C@@H]2CC[C@@]2(C)[C@H]1CC[C@]2(C)O")
88
>>> measured("CCc1oc2ccccc2c1C(=O)c1cc(I)c(O)c(I)c1")
110
>>> measured("CCSCC[C@H](N)C(=O)O")
113.5
>>> measured("O=C(O)c1cccnc1")
127.5
>>> measured("Nc1nc(N)c2nc(-c3ccccc3)c(N)nc2n1")
91.5
>>> measured("CCC(C)(C)C(=O)O[C@H]1C[C@@H](C)C=C2C=C[C@H](C)[C@H](CC[C@@H]3C[C@@H](O)CC(=O)O3)[C@H]21")
122.2
>>> measured("C[C@](N)(Cc1ccc(O)c(O)c1)C(=O)O")
69.9
